assay: chemical genetic growth profiling, strain panel (AID 1159580);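 note: tested at 20 µM; growth read once vehicle control cultures reached saturation at 30 °C; lower values mean less growth of the strain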; conditions: S. cerevisiae deletion strains, growth OD, locus YLR058C, strain SHM2, active compounds read low
The campaign covered roughly 5,500 compounds. About 2,000 (36%) were called active. Inconclusive results (about 18%) are left out. This is one part of the list.
normalized growth vs 1: less than gives T; not less than gives F.

Please review the entries below; each comes with its answer.
{"compound": "COc1ccc2c(=O)c(OC)c(-c3ccccc3)oc2c1", "class": "T"}
{"compound": "COc1ccc2oc(-c3ccccc3)c(OC)c(=O)c2c1", "class": "T"}
{"compound": "COc1c(C)c2c(c(O)c1C/C=C(\\C)CCC(=O)O)C(=O)OC2", "class": "T"}

In plain terms, does CC1[C@H](C)OC(=O)CC(O)CC(O)CC(O)CCC(O)C(O)C[C@]2(O)CC(O)C(C(=O)O)C(CC(OC3O[C@H](C)[C@@H](O)[C@H](N)[C@@H]3O)/C=C/C=C/C=C/C=C/CC/C=C/C=C/[C@H](C)[C@H]1O)O2 (stereo partly specified) come in under 1 for normalized growth? T

In plain terms, does "O=c1oc2ccccc2cc1O" come in under 1 for normalized growth? F

In plain terms, does "COc1ccc2oc3ccccc3c(=O)c2c1" come in under 1 for normalized growth? T

In plain terms, does CCN1C[C@@]2(COC)C3[C@@H](OC)[C@H]4[C@@H]1[C@]3(C(OC)C[C@H]2O)C1C[C@@]2(O)[C@H](OC(=O)c3ccccc3)C1[C@]4(OC(C)=O)[C@@H](O)[C@@H]2OC (stereo partly specified) come in under 1 for normalized growth? F

In plain terms, does "Cc1cc(/C=C/c2ccc3cc(N(C)C)ccc3[n+]2C)c(C)n1-c1ccccc1" come in under 1 for normalized growth? T

In plain terms, does "CN(C)C(=O)Oc1ccc[n+](C)c1" come in under 1 for normalized growth? F

In plain terms, does CNc1ccc(C(=O)CC(O)CCC(C)C2OC(=O)CC(O)CC(=O)CC(O)CC(O)CC(O)CC(O)CC3(O)CC(O)C(C(=O)OC)C(CC(OC4OC(C)C(O)C(N)C4O)/C=C/C=C/C=C/C=C/C=C/C=C/C=C/C2C)O3)cc1 (stereo unspecified) come in under 1 for normalized growth? T
